Exercise: for every item that follows, state its recorded MIC.
- System: Staphylococcus aureus
- measurement_description: Antibacterial activity against vancomycin-resistant Staphylococcus aureus isolate 595
- Format: functional
Please give a number only; it is taken to be in µg/mL.

For reference, reported MIC for `C[C@H]1COc2c(N3CCN(C)CC3)c(F)cc3c(=O)c(C(=O)O)cn1c23.C[C@H]1COc2c(N3CCN(C)CC3)c(F)cc3c(=O)c(C(=O)O)cn1c23.O` stands at 16

In plain terms, `C[C@H]1c2cccc(O)c2C(=O)C2=C(O)[C@]3(O)C(=O)C(C(N)=O)=C(O)[C@@H](N(C)C)[C@@H]3[C@@H](O)[C@@H]21.O` has a documented MIC of 4

The measured MIC associated with `CN[C@H](CC(C)C)C(=O)N[C@H]1C(=O)N[C@@H](CC(N)=O)C(=O)N[C@H]2C(=O)N[C@H]3C(=O)N[C@H](C(=O)N[C@H](C(=O)O)c4cc(O)cc(O)c4-c4cc3ccc4O)[C@H](O)c3ccc(c(Cl)c3)Oc3cc2cc(c3O[C@@H]2O[C@H](CO)[C@@H](O)[C@H](O)[C@H]2O[C@H]2C[C@](C)(N)[C@H](O)[C@H](C)O2)Oc2ccc(cc2Cl)[C@H]1O` reads 64
